Assayed system: human TRPM8 (Homo sapiens)
Construct: expressed in transfected cells; host or cells: Chinese hamster ovary (CHO) cells, T-REx tetracycline-inducible system, co-transfected with aequorin
Sequence (Q7Z2W7 whole entry): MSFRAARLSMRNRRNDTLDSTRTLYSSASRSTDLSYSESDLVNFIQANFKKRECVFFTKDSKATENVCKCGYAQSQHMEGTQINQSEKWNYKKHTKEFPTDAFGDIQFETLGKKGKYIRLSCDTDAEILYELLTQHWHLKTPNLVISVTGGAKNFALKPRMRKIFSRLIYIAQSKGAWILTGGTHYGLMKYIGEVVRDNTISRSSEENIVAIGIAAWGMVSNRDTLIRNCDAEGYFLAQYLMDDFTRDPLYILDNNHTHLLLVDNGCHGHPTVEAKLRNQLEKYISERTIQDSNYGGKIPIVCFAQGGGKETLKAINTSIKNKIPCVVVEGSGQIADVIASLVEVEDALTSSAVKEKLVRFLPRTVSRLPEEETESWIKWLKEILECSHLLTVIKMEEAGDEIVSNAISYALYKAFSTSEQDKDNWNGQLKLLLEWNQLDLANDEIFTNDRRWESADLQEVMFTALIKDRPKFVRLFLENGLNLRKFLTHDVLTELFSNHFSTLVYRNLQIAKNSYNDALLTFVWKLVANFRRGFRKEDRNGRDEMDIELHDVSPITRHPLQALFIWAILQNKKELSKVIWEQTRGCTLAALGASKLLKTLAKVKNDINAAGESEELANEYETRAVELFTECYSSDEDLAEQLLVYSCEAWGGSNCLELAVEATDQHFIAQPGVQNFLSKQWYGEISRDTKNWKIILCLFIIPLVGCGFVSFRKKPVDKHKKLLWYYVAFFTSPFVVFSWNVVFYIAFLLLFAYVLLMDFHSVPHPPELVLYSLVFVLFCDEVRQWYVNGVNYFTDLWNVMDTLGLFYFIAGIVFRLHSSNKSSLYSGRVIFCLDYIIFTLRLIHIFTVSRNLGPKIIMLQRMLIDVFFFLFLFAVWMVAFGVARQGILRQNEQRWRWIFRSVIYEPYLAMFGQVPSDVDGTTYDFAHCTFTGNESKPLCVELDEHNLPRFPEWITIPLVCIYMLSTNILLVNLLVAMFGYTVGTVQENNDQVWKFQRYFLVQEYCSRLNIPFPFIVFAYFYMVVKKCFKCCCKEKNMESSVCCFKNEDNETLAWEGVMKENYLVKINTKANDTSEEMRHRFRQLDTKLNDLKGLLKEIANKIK
Test details: Luminescence readout assay for measuring intracellular calcium, icilin activation
Assay type: cell-based
Setup conditions: CHO cells expressing human TRPM8, aequorin luminescence, 1 μM icilin activation; read-out: hTRPM8 IC50
Value type: IC50 (nM)

Consider the reported IC50 for these compounds:
O=C(N[C@@H](c1ccc(C(F)(F)F)cc1)c1nc(F)ccc1F)c1ccc(=O)[nH]c1; 332
Cc1cccnc1[C@@H](NC(=O)c1ccc(=O)n(C)c1)c1ccc(OC(F)(F)F)c(F)c1; 15.4

(I) Cn1cc(C(=O)N[C@@H](c2ccc(Cl)c(Cl)c2)c2ncccc2F)ccc1=O [Example 251, 2,2,2-trifluoroacetate]
(II) O=C(N[C@@H](c1ccc(C(F)(F)F)cc1)c1ncccc1C(F)(F)F)c1ccccn1
Query: Of the pair I and II , name the member with the lesser recorded IC50. Write the label of whichever entry you select.
Reply: I
